# TEST_SYSTEM: ScLsb4
# RUN_DESCRIPTION: SPOT peptide array binding signal intensity (averaged, normalized) (arbitrary units (background-subtracted, floor 0; scale differs between SH3 domains)); higher = stronger binding of the SH3 domain to the peptide
MEASURE_NAME: SPOT peptide array binding signal intensity

# BINDER, READING_QUALIFIER, EXPERIMENTAL_RESULT
records = [
    ("TIRRRAPLSLLESHT", "=", 8),
    ("GKKVRPLLVLLLSRA", "≤", 0),
    ("APPPPPRRATPEKKP", "=", 375),
    ("DLPLPDLPPEPPTEL", "≤", 0),
    ("GKFIPSRPAPKPPSS", "=", 13.5),
    ("LKQRFFLMFPKSIIW", "=", 14.5),
    ("PSPSSSPPPIPKTAN", "≤", 0),
    ("FVLRYYILIPHEQWD", "=", 5),
    ("SKSRLLIELPEGFFT", "≤", 0),
    ("RAPPPVPKKPSSRIA", "=", 52.5),
    ("LFMKGTPEFPKSGFS", "=", 92.5),
    ("IAPIPMPKPNPTHIS", "≤", 0),
    ("VYTRTAFQIPGDDKI", "≤", 0),
    ("KKAPPPVVKPKPRNF", "=", 3.5),
    ("WTQRRGPLVVYAEDN", "≤", 0),
]

FYI, the data here is from the supplement of paper PMC4466140.
